# test_system: T1, Metnase transposase domain N610E (UniProt Q53H47 342-684, N623E)
# T1 sequence: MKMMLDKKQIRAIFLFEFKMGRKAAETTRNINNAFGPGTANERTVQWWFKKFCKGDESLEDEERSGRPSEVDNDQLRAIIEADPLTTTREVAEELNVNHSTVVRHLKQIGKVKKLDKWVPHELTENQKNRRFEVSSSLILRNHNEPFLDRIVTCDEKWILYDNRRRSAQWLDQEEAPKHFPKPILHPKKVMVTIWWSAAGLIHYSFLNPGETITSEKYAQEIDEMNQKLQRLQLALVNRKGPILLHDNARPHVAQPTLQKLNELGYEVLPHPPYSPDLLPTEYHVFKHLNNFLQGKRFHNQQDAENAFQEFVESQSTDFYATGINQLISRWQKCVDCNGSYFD
# test_protocol: fluorescence polarization; FP: 50 mM HEPES pH 7.0, 150 mM NaCl, 10 nM probe, temperature not stated; EMSA: 50 mM HEPES-KOH pH 7.8, 50 mM NaCl, 0.2 ug poly(dI:dC), 0.2 ug/ul BSA, room temperature 15 min
# condition_info: protein: recombinant; tags: His6-SUMO cleaved by Ulp1; label: 5' rhodamine; single strand
assay_endpoint: pKd
pKd (log units): -log10 of the concentration in mol/L.

Looking up AACCGCAATTACTTTTGCACCAACC (ssDNA, 5' C6-amino linker) [25-nt TIR ssDNA] , I found its pKd recorded as 5.49
